Cited source: PubChem BioAssay AID1240

Target: Bcl-2-like protein 10 (Homo sapiens) (UniProt Q9HD36)
Sequence (Q9HD36 whole entry, looked up): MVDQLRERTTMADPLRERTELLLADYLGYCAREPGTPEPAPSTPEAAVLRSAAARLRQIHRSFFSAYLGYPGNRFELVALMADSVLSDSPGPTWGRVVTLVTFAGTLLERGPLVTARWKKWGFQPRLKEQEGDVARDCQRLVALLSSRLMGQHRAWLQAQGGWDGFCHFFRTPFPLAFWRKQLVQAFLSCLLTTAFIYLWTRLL
Experiment: TR3 peptide-Bcl-B binding displacers, biochemical primary FP assay, phenotype converters (AID 1240);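 further: 0% = Bcl-B with tracer peptide and DMSO and 100% = tracer peptide lacking Bcl-B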
Conditions: GST-Bcl-B / FITC-TR3 peptide fluorescence polarization; stronger effect = higher value; compound at 3.75 mg/L
Among all 50,000 compounds or so, about 800 (1.6%) showed an effect of 50% or more. Only a selection was taken, and strong results are over-represented in it overall.
Entries annotated with measured displacement
Answer with the value and then the unit.

Check out these entries, answers already filled in.
State its displacement on Bcl-2-like protein 10 (Homo sapiens) (UniProt Q9HD36): "CC(C)C1=NN2C(=N)/C(=C/c3ccc(-c4ccc([N+](=O)[O-])cc4)o3)C(=O)N=C2S1"
111%

State its displacement on Bcl-2-like protein 10 (Homo sapiens) (UniProt Q9HD36): "Cc1ccc(C(=O)c2cccc(NC(=O)CC(C)C)c2)cc1C"
12.1%

State its displacement on Bcl-2-like protein 10 (Homo sapiens) (UniProt Q9HD36): "Cc1cc(C)c2oc(-c3ccc(C)c(NC(=O)c4ccc(Br)o4)c3)nc2c1"
-3.8%

State its displacement on Bcl-2-like protein 10 (Homo sapiens) (UniProt Q9HD36): COc1ccc(C2C(C(C)=O)=C(Nc3ccc(Br)cc3)CC(C)(O)C2C(C)=O)cc1 (stereo not given)
90.9%

State its displacement on Bcl-2-like protein 10 (Homo sapiens) (UniProt Q9HD36): "Cc1ccccc1OCCOc1ccc(/C=C2/SC(=S)N(C)C2=O)cc1"
0.3%

State its displacement on Bcl-2-like protein 10 (Homo sapiens) (UniProt Q9HD36): "COc1cc([N+](=O)[O-])ccc1-c1ccc(/C=C2/C(=N)N3N=C(C(C)C)SC3=NC2=O)o1"
77%

Further cases:
State its displacement on Bcl-2-like protein 10 (Homo sapiens) (UniProt Q9HD36): "Cc1cccnc1NC(=O)c1cc2c(ccc3ccccc32)oc1=O"
93%

State its displacement on Bcl-2-like protein 10 (Homo sapiens) (UniProt Q9HD36): COc1ccc(C2C(C(C)=O)=C(Nc3ccccc3)CC(C)(O)C2C(C)=O)cc1 (stereo not given)
1.4%

State its displacement on Bcl-2-like protein 10 (Homo sapiens) (UniProt Q9HD36): O=C1C2C(c3ccccc3)C=CC(c3ccccc3)C2C(=O)N1Cc1ccc(F)cc1 (stereo not given)
-7.7%

State its displacement on Bcl-2-like protein 10 (Homo sapiens) (UniProt Q9HD36): "CC(C)C1=NN2C(=N)/C(=C/c3ccc(Sc4ccc(Cl)cc4)o3)C(=O)N=C2S1"
-18.4%
